The following compounds are listed with their measured pKi values.
# experimentDescription: Inhibition of Deinococcus radiodurans homoisocitrate dehydrogenase
Quick note: pKi values are minus log10 of concentrations in mol/L.

Worked cases, answers included:
1) O=C(O)CC/C=C(\C(=O)O)[C@@H](O)C(=O)O : 3.59
2) C=C[C@H](C(=O)O)[C@@H](O)C(=O)O : 4.06
3) O=C(O)CC/C=C(/C(=O)O)[C@@H](O)C(=O)O : 2.51

The compound listed as O=C(O)/C(=C/CCO)[C@@H](O)C(=O)O shows pKi equal to 2.28

The compound listed as O=C(O)/C(=C\CCO)[C@@H](O)C(=O)O shows pKi equal to 1.82
